Molecular target: dopamine D2 receptor (Rattus norvegicus)
Test: Radioligand binding affinity on dopamine D2 receptor ([3H]Spiperone)
Conditions: D2 receptor protein expressed in HEK-293 cells
Label yes (1) when D2 receptor inhibition % is at or above 20%; anything below gets no (0).

Exam item: Given COc1ccc2c(c1OC)CN1CCc3sccc3[C@@H]1C2 , state whether its D2 receptor inhibition % is at least 20%.
Marked response: no (0)

Exam item: Given COc1c(NC(C)=O)ccc2c1CN1CCc3sccc3[C@@H]1C2 , state whether its D2 receptor inhibition % is at least 20%.
Marked response: no (0)

Exam item: Given COc1ccc2c(c1OC)CN1CCc3sc(C)cc3[C@@H]1C2 , state whether its D2 receptor inhibition % is at least 20%.
Marked response: yes (1)

Exam item: Given COc1cc2c(cc1O)[C@@H]1Cc3sc(CCCCCl)cc3CN1CC2 , state whether its D2 receptor inhibition % is at least 20%.
Marked response: yes (1)

Exam item: Given COc1ccc(OC)c2c1C[C@H]1c3cc(C)sc3CCN1C2 , state whether its D2 receptor inhibition % is at least 20%.
Marked response: no (0)

###

RECORDED_ENDPOINT: IC50 (nM)
// units = nM; emit number, no label

Exam item: // fetch IC50; item: COc1cc2c(cc1O)[C@@H]1Cc3sc(CCCl)cc3CN1CC2 ; system: 5-HT1A receptor (Homo sapiens, UniProt P08908)
Sequence (P08908 whole entry): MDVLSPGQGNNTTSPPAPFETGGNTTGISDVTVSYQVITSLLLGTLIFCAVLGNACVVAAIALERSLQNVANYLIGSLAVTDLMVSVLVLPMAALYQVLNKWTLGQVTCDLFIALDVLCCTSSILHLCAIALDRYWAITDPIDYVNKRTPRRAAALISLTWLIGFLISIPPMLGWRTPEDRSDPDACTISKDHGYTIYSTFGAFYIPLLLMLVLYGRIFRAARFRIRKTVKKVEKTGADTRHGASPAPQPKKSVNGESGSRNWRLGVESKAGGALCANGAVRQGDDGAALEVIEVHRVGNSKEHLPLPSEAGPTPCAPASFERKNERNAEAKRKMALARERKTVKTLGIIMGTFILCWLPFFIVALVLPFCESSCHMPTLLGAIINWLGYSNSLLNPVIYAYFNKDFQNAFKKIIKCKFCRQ
Marked response: 692

Exam item: // fetch IC50; item: COc1cc2c(cc1O)[C@@H]1Cc3sc(CCCCl)cc3CN1CC2 ; system: 5-HT1A receptor (Homo sapiens, UniProt P08908)
Marked response: 148

Exam item: // fetch IC50; item: CCc1cc2c(s1)C[C@H]1c3cc(O)c(OC)cc3CCN1C2 ; system: 5-HT1A receptor (Homo sapiens, UniProt P08908)
Marked response: 1250

Exam item: // fetch IC50; item: CCCc1cc2c(s1)C[C@H]1c3cc(O)c(OC)cc3CCN1C2 ; system: 5-HT1A receptor (Homo sapiens, UniProt P08908)
Marked response: 2460

Exam item: // fetch IC50; item: CCCCc1cc2c(s1)C[C@H]1c3cc(O)c(OC)cc3CCN1C2 ; system: 5-HT1A receptor (Homo sapiens, UniProt P08908)
Marked response: 1080

Exam item: // fetch IC50; item: COc1c(O)ccc2c1CN1CCc3sc(C)cc3[C@@H]1C2 ; system: 5-HT1A receptor (Homo sapiens, UniProt P08908)
Marked response: 514

Exam item: // fetch IC50; item: CCc1cc2c(s1)CCN1Cc3c(ccc(O)c3OC)C[C@@H]21 ; system: 5-HT1A receptor (Homo sapiens, UniProt P08908)
Marked response: 162

Exam item: // fetch IC50; item: COc1cc2c(cc1OC)CN1CCc3c([nH]c4ccccc34)[C@@H]1C2 ; system: 5-HT1A receptor (Homo sapiens, UniProt P08908)
Marked response: 911

###

Target: dopamine D2 receptor (Rattus norvegicus, UniProt P61169)
Sequence (P61169 whole entry): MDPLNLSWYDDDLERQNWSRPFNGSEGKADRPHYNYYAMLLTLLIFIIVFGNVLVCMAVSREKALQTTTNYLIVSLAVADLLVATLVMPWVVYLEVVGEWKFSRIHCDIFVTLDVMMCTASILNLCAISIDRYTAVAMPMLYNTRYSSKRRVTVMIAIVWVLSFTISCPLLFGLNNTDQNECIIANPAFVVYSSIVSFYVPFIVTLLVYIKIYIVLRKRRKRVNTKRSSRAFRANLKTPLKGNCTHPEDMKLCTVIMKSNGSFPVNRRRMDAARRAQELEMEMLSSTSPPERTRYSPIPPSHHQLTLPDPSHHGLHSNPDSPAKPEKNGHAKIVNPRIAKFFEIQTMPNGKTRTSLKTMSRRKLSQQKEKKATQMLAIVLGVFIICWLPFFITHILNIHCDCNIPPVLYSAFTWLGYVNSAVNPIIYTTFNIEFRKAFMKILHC
Experiment: Radioligand binding affinity on dopamine D2 receptor ([3H]Spiperone)
Conditions: D2 receptor protein expressed in HEK-293 cells
RECORDED_ENDPOINT: pIC50
Units for pIC50: none; it is -log10 of a concentration expressed in mol/L.

Exam item: Give pIC50 for the following compound: COc1cc2c(cc1O)[C@@H]1Cc3sc(CCCCCl)cc3CN1CC2
Marked response: 6.82

Exam item: Give pIC50 for the following compound: COc1cc2c(cc1O)[C@@H]1Cc3sc(CCCl)cc3CN1CC2
Marked response: 6.84

Exam item: Give pIC50 for the following compound: COc1cc2c(cc1O)[C@@H]1Cc3sccc3CN1CC2
Marked response: 6.40

Exam item: Give pIC50 for the following compound: CCc1cc2c(s1)C[C@H]1c3cc(O)c(OC)cc3CCN1C2
Marked response: 6.74

Exam item: Give pIC50 for the following compound: COc1cc2c(cc1O)[C@@H]1Cc3sc(CCCCl)cc3CN1CC2
Marked response: 7.26

Exam item: Give pIC50 for the following compound: COc1cc2c(cc1O)[C@@H]1Cc3sc(CCC(C)C)cc3CN1CC2
Marked response: 6.62

Exam item: Give pIC50 for the following compound: CCCCc1cc2c(s1)C[C@H]1c3cc(O)c(OC)cc3CCN1C2
Marked response: 7.12

Exam item: Give pIC50 for the following compound: CCCc1cc2c(s1)C[C@H]1c3cc(O)c(OC)cc3CCN1C2
Marked response: 6.77

###

Target: dopamine D1 receptor (Macaca mulatta, UniProt O77680)
Sequence (O77680 whole entry): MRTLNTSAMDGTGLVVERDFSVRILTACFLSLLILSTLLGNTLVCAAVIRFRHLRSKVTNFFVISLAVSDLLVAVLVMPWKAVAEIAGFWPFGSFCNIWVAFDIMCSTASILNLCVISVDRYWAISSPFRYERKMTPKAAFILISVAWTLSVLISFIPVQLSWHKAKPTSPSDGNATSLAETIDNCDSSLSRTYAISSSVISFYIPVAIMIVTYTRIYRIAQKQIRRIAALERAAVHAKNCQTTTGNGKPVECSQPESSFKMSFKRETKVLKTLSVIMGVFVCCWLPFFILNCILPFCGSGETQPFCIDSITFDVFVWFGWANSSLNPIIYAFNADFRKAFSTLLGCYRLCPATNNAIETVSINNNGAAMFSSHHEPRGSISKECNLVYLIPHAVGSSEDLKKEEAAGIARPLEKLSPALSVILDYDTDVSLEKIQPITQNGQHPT
Assay: Radioligand binding affinity on dopamine D1 receptor ([3H]-SCH23390)
Settings: D1 receptor protein expressed in HEK-293 cells
RECORDED_ENDPOINT: D1 receptor inhibition % (%)
// units = %; emit number, no label

Exam item: Give D1 receptor inhibition % for the following compound: COc1c(O)ccc2c1CN1CCc3sc(C)cc3[C@@H]1C2 [AS003]
Marked response: 99.80

Exam item: Give D1 receptor inhibition % for the following compound: COc1cc2c(cc1O)[C@@H]1Cc3sc(CCCl)cc3CN1CC2 [DS013]
Marked response: 98.64

Exam item: Give D1 receptor inhibition % for the following compound: COc1cc2c(cc1O)[C@@H]1Cc3sc(CCCCCl)cc3CN1CC2 [DS016]
Marked response: 95.84

Exam item: Give D1 receptor inhibition % for the following compound: COc1cc2c(cc1O)[C@@H]1Cc3sc(CCC(C)C)cc3CN1CC2 [DS008]
Marked response: 88.78

Exam item: Give D1 receptor inhibition % for the following compound: COc1ccc2c(c1OC)CN1CCc3sc(C)cc3[C@@H]1C2 [AS023]
Marked response: 89.62

Exam item: Give D1 receptor inhibition % for the following compound: COc1cc2c(cc1O)[C@@H]1Cc3sc(CCCCl)cc3CN1CC2 [DS015]
Marked response: 96.10

Exam item: Give D1 receptor inhibition % for the following compound: COc1c(N)ccc2c1CN1CCc3sccc3[C@@H]1C2 [AS050]
Marked response: 99.02

Exam item: Give D1 receptor inhibition % for the following compound: COc1ccc(OC)c2c1C[C@H]1c3cc(C)sc3CCN1C2 [AS032]
Marked response: 96.00

Exam item: Give D1 receptor inhibition % for the following compound: CCCc1cc2c(s1)C[C@H]1c3cc(O)c(OC)cc3CCN1C2 [DS005]
Marked response: 96.74

Exam item: Give D1 receptor inhibition % for the following compound: CCc1cc2c(s1)CCN1Cc3c(ccc(O)c3OC)C[C@@H]21 [AS005]
Marked response: 98.23

Exam item: Give D1 receptor inhibition % for the following compound: COc1ccc2c(c1OC)CN1CCc3sccc3[C@@H]1C2 [AS022]
Marked response: 69.25

Exam item: Give D1 receptor inhibition % for the following compound: CCc1cc2c(s1)C[C@H]1c3cc(O)c(OC)cc3CCN1C2 [DS003]
Marked response: 98.16

Exam item: Give D1 receptor inhibition % for the following compound: COc1c(O)ccc2c1CN1CCc3sc(C)cc3[C@H]1C2 [AS004]
Marked response: 86.32

Exam item: Give D1 receptor inhibition % for the following compound: CCCCc1cc2c(s1)C[C@H]1c3cc(O)c(OC)cc3CCN1C2 [DS007]
Marked response: 97.62

Exam item: Give D1 receptor inhibition % for the following compound: COc1c(NC(C)=O)ccc2c1CN1CCc3sccc3[C@@H]1C2 [AS051]
Marked response: 76.38

###

Molecular target: dopamine D1 receptor (Macaca mulatta, UniProt O77680)
Assay: Radioligand binding affinity on dopamine D1 receptor ([3H]-SCH23390)
Conditions: D1 receptor protein expressed in HEK-293 cells
Flag rule - Ki less than 80 nM flags True; the remaining entries get False.

Exam item: # strict comparison: is reported Ki < 80 nM? input = COc1cc2c(cc1O)[C@@H]1Cc3sc(CCCCCl)cc3CN1CC2
Marked response: False

Exam item: # strict comparison: is reported Ki < 80 nM? input = COc1cc2c(cc1O)[C@@H]1Cc3sc(CCCCl)cc3CN1CC2
Marked response: True

Exam item: # strict comparison: is reported Ki < 80 nM? input = COc1ccc(OC)c2c1C[C@H]1c3cc(C)sc3CCN1C2
Marked response: False

Exam item: # strict comparison: is reported Ki < 80 nM? input = COc1cc2c(cc1O)[C@@H]1Cc3sc(CCCl)cc3CN1CC2
Marked response: True

Exam item: # strict comparison: is reported Ki < 80 nM? input = CCCc1cc2c(s1)C[C@H]1c3cc(O)c(OC)cc3CCN1C2
Marked response: True

Exam item: # strict comparison: is reported Ki < 80 nM? input = COc1ccc2c(c1OC)CN1CCc3sc(C)cc3[C@@H]1C2
Marked response: False

Exam item: # strict comparison: is reported Ki < 80 nM? input = CCCCc1cc2c(s1)C[C@H]1c3cc(O)c(OC)cc3CCN1C2
Marked response: True

Exam item: # strict comparison: is reported Ki < 80 nM? input = COc1c(O)ccc2c1CN1CCc3sc(C)cc3[C@H]1C2
Marked response: False

Exam item: # strict comparison: is reported Ki < 80 nM? input = COc1cc2c(cc1O)[C@@H]1Cc3sccc3CN1CC2
Marked response: False

Exam item: # strict comparison: is reported Ki < 80 nM? input = CCc1cc2c(s1)C[C@H]1c3cc(O)c(OC)cc3CCN1C2
Marked response: True

Exam item: # strict comparison: is reported Ki < 80 nM? input = COc1c(O)ccc2c1CN1CCc3sc(C)cc3[C@@H]1C2
Marked response: True

Exam item: # strict comparison: is reported Ki < 80 nM? input = COc1c(N)ccc2c1CN1CCc3sccc3[C@@H]1C2
Marked response: False

Exam item: # strict comparison: is reported Ki < 80 nM? input = CCc1cc2c(s1)CCN1Cc3c(ccc(O)c3OC)C[C@@H]21
Marked response: True

Values compiled from patent US9751882B2.
